MEASURED_QUANTITY: melting point

Challenge: // lookup melting point for `COC(=O)c1c(OC)cc(CC(C#N)=CNc2ccccc2)cc1OC`
Response given: 193 to 194 °C

Challenge: Next entry: CCCCCCCCCCC(Cn1ccnc1)SCCCC (stereo not given)
Response given: 95 to 97 °C

Challenge: Subsequent entry: O=C1CCC(N2Cc3c(OCc4ccc(CN5CCN(CC6CC6)CC5)cc4)cccc3C2=O)C(=O)N1 (stereo not given)
Response given: 176 to 178 °C

Challenge: Next up: `C#Cc1cnn2c(C(F)(F)F)cc(-c3ccc(C(F)(F)F)cc3)nc12`
Response given: 138 °C

Challenge: Proceed to `Cc1cn(C)c2c1N(C(=O)CCl)c1ccccc1NC2=O`
Response given: 267 to 269 °C

---

MEASURED_QUANTITY: melting point (°C)
Enter your answer as a number in °C; do not include the unit.

Challenge: # melting point lookup, item OC(CN1CCNCC1)Cn1c2ccccc2c2cc(-c3ccccc3)ccc21 (stereo not given)
Response given: 120

Challenge: Continue with O=S(=O)(NC1CCC(O)CC1)c1cccc2ccccc12 (stereo not given)
Response given: 174

Challenge: Try `CCn1nc(C2CC2)c(C(=O)O)c1Cc1ccc(-c2ccccc2S(=O)(=O)NC(=O)c2ccccc2)cc1` next.
Response given: 217

Challenge: // next record `CCOC(=O)c1cn(N(C)C=O)c2c(F)c(N3CCN(C)CC3)c(F)cc2c1=O`
Response given: 180

---

Kindly supply the reported melting point values for the records listed here.
Return type: number; implicit unit °C.

Challenge: melting point lookup needed for `CCCC(CCC)CCCC(N)=O` , thanks.
Response given: 44

Challenge: Then this compound: `COc1ccc2[nH]cc(-c3cc4c(OC)ncnc4n3S(=O)(=O)c3ccc(C)cc3)c2c1`
Response given: 131

---

MEASURED_QUANTITY: melting point

Challenge: # get_value(readout='melting point', item= CC(CCCc1ccccc1)(C(=O)O)c1ccc(CCCNC(=O)c2ccc(-c3ccccn3)cc2)cc1 (stereo not given) )
Response given: 118 to 119 °C

Challenge: Next molecule up: `CCOC(=O)c1csc(-c2cc3cccc(NS(=O)(=O)c4cccs4)c3[nH]2)n1`
Response given: 240 to 241 °C

Challenge: Next: `O=C1CN=C(c2ccccc2)c2cc(NO)ccc2N1`
Response given: 186 to 187 °C

Challenge: Next up: `CCOC(=O)c1cn(C)c2cnc3cc(N4CCN(c5ccc(F)cc5)CC4)c(F)cc3c2c1=O`
Response given: 300 °C

Challenge: Item: `Nc1nc2[nH]c(CCC#Cc3ccsc3C(=O)N[C@@H](CCC(=O)O)C(=O)O)cc2c(=O)[nH]1`
Response given: 177 to 178 °C

---

MEASURED_QUANTITY: melting point

Challenge: I'd like to know its melting point. The molecule in question is `Clc1cc2c(-c3ccccc3)coc2c2ccccc12`
Response given: 66 to 69 °C

Challenge: Now the same for `CCOC(=O)CN1C(=O)c2cccc3c(Br)ccc1c23`
Response given: 128 to 130 °C

Challenge: Same question for `N#Cc1cc(C(F)(F)F)cc(Cl)c1N1CN(Br)C(C(F)(F)F)=CC1=O` please.
Response given: 166 to 167 °C

Challenge: Now this one: `Clc1nc(-c2ccc3c(c2)CCO3)nc2ccccc12`
Response given: 186 to 192 °C

Challenge: Let us now turn to CC1(C)C(=O)N(Cc2ccccc2Cl)OC1Nc1ccccc1 (stereo unspecified)
Response given: 99 to 101 °C

Challenge: Can you check `COC(=O)c1ccccc1Sc1ccccc1OC` next?
Response given: 82 to 84 °C

Challenge: Also need `CCOC(=O)Cc1sc(Sc2cc(C(F)(F)F)ccn2)nc1C` , thanks.
Response given: 57 to 59 °C

Challenge: Check `Cc1cccc(C(=NO)c2ccc(OCCOc3ccc(C(=NO)c4cccc(C)c4)cc3)cc2)c1` too.
Response given: 151 to 153 °C

Challenge: Then what about the molecule `Cc1nnc(C=Cc2ccccc2O)s1` ?
Response given: 253 to 254 °C

Challenge: Lookup `COC(=O)Cc1cn(-c2ccccc2)nc1OCc1ccc(OCc2nc(-c3ccccc3)oc2C)c(OC)c1`
Response given: 107 to 108 °C

Challenge: Item: `O=C(N1CCc2ccccc2CC1)C(F)(F)F`
Response given: 73 to 74 °C

Challenge: Next up: `O=C(NC(=O)c1c(Cl)cccc1Cl)Nc1ccc(Cl)cn1`
Response given: 220 to 222 °C

Challenge: Request: COC(=O)C1=C(C)NN=C(C(=O)N(C)Cc2ccccc2)C1c1ccccc1C(F)(F)F (stereo unspecified)
Response given: 197 °C

Challenge: # iterate: `COC(=O)COc1ccsc1-c1nsc2ccc(-n3c(=O)cc(C(F)(F)F)n(C)c3=O)cc12`
Response given: 73 to 79 °C

Challenge: Another molecule to look at: `COC(=O)c1cc2c(n(Cc3ccc(C#N)cc3)c1=O)CCCCCC2`
Response given: 72 to 75 °C

Challenge: One more molecule: `O=C1c2cc(O)ccc2OC12CC2`
Response given: 180 to 185 °C

Challenge: Cool, now `COC1(c2cc(F)cc(Sc3ccc(/C(C)=N/O)c(O)c3)c2)CCOCC1`
Response given: 140 to 142 °C

Challenge: Here is the next molecule: `CCOC(=O)C(C(=O)OCC)c1c(Br)cnc2c([N+](=O)[O-])cccc12`
Response given: 94 to 95 °C

Challenge: What about `O=C(CCCCCNC(=O)Cc1ccc(-c2ccccc2)cc1)NO` ?
Response given: 226 to 227 °C

Challenge: Same read-out for CCN1C(=O)SC(Cc2ccc(NC(=O)/C=C/c3cnn(C)c3-c3ccc(F)cc3)cc2)C1=O (stereo unspecified) ?
Response given: 214 to 215 °C

Challenge: // query: `COc1ccc(C(=O)Nc2ccccc2)cc1NC(=S)Nc1ccc(Cl)c([N+](=O)[O-])c1`
Response given: 174 to 175 °C

---

Exercise: for every item that follows, state its recorded melting point.

Challenge: Suppose we examine the compound CN1CSC(Cc2cc(C(C)(C)C)c(O)c(C(C)(C)C)c2)C1=O (centres undefined) ; what melting point value has been reported?
Response given: 102 to 105 °C

Challenge: // repeat for CC(C)c1cccc(C(C)C)c1NC(=O)C1CC2=C(CCCCCCCCCC2)C1=O (centres undefined) and report
Response given: 225 to 229 °C

Challenge: Moving on to `O=C1OCc2c1cc1ccc3c(c1c2-c1ccc(OC(F)(F)F)cc1)OCO3`
Response given: 222 to 225 °C

Challenge: Let us now turn to `C#CCNC(=O)c1ncn2c1CN(C)C(=O)c1cc(F)ccc1-2`
Response given: 205 to 206 °C

Challenge: Also, `COC(=O)c1cc(OCc2ccccc2)c(OCc2ccccc2)c(CSCC(=O)O)n1` please.
Response given: 135 °C

Challenge: Now this one: `CCOC(=O)CCNc1ncccc1NC(=O)c1ccccc1Cl`
Response given: 90 to 92 °C

Challenge: How about this compound: `COc1ccc(/C(=N\O)c2cccc(NS(=O)(=O)N(C)C)c2)cc1`
Response given: 160 to 161 °C

Challenge: # repeat for O=C(O)CCCC(Nc1ccccc1)c1ccc(Cl)cc1 (centres undefined)
Response given: 133 to 134 °C

Challenge: Thanks! And COc1cc2c(cc1OC)C(=O)C(CN1CCC3(CC1)C(=O)NCN3c1ccccc1)C2 (centres undefined) ?
Response given: 174 to 177 °C

Challenge: Lookup `COc1cc2c(c3c1OC(C)(C)C3)C(c1cccc(O)c1)=NC(C)(C)C2`
Response given: 208 to 209 °C

Challenge: Queued: `CC(C)n1nc(-c2c(-c3ccccc3)nn3ccc(OCC(=O)N4CCN(C(=O)N(C)C)CC4)cc23)ccc1=O`
Response given: 151 to 152 °C

Challenge: Now give it for `O=c1c2cccnc2n(-c2cccc([N+](=O)[O-])c2)c(=O)n1CC(F)(F)F` too.
Response given: 228 to 229 °C

Challenge: Same again, this time with `COc1c(Cl)nc(SC)nc1NN`
Response given: 118 to 119 °C

Challenge: Now the same for `CC(C)N(C(=O)c1ccc(OCCCCCOc2ccc(C(N)=NO)cc2)cc1O)C(C)C`
Response given: 195 to 197 °C

Challenge: Also `CC(C)(C)c1cc(-c2cc(-c3ccc(C(=O)O)cc3)ccc2OCCO)ccc1N1CCCC1` , if possible.
Response given: 223 °C

Challenge: What would you report for COc1ccccc1N1CCN(C(=O)Nc2cc(C(C)O)c(C)nc2OC)CC1 (centres undefined) ?
Response given: 88 to 90 °C

Challenge: Same for `CCN(CC)CCOC(=O)CCc1cc(S(C)(=O)=O)cc(-c2nc(=O)c3ccc(Cl)cc3s2)n1`
Response given: 150 to 152 °C

Challenge: Entry to check: `CCOC(=O)[C@@H]1OC(c2ccc3c(c2)OCO3)O[C@H]1C(=O)OCC`
Response given: 39 to 40 °C

Challenge: Also need `CNC(=O)c1ccc(C(C)(C)CCNC(=O)NCc2ccc(N)nc2)nc1Nc1ccccc1` , thanks.
Response given: 134 °C

Challenge: Similarly, `COC(=O)/C=C/n1cnc2ccc(C(C)C)cc2c1=O` ?
Response given: 145 °C

Challenge: Proceed to N[C@@H](Cc1cccc(OC(F)(F)C(F)F)c1)[C@H](O)c1ccnc(F)c1 (racemic)
Response given: 119 to 120 °C

Challenge: Repeat with `O=C(Nc1nn(-c2ccccc2)cc1C(=O)O)OCc1cc2cc(-c3ccccc3)ccc2o1`
Response given: 221 °C

Challenge: Also, C=C1CCC2(c3c[nH]cn3)Cc3ccccc3C12 (centres undefined) please.
Response given: 167 to 174 °C

Challenge: # repeat for `O=C1NCCN1c1ccc(C(F)(F)F)cc1`
Response given: 169 to 171 °C

Challenge: Next: `COC(=O)[C@H](Cc1ccc(N2C(=O)c3ccc(Br)cc3C2=O)cc1)NC(=O)OC(C)(C)C`
Response given: 168 to 170 °C

Challenge: Queued: CNc1nc(-c2cccc(-c3cncc(S(C)=O)c3)c2)c2cc(OC)c(OC)cc2n1 (centres undefined)
Response given: 208 to 210 °C

Challenge: Next compound: `COC(=O)c1ccc2[nH]c(=O)n(CCCCN3CC=C(c4ccccc4)CC3)c(=O)c2c1`
Response given: 138 °C

Challenge: Next compound: `Cc1cscc1NC(=S)Nc1cccc(Cl)c1N`
Response given: 298 to 305 °C

Challenge: Input `Cc1cc(O)cc(C)c1N`
Response given: 190 to 191 °C

Challenge: Now consider `O=[N+]([O-])c1ccc(-c2ccc(OCCCCCCO)cc2)cc1` and answer again.
Response given: 117 to 119 °C

Challenge: Can you check `CCC[C@@](CCc1ccccc1)(CC(=O)OCOc1ccc(-c2ccccc2)cc1)OCOc1ccc(-c2ccccc2)cc1` next?
Response given: 104 to 106 °C

Challenge: Thanks! And CCOC(=O)COc1ccc(C2=CC(=O)CCC2CC)c(Cl)c1Cl (centres undefined) ?
Response given: 110 to 112 °C

Challenge: Would you mind doing `CCOCc1nc2c(NC(=O)C(C)C)nc3ccccc3c2n1CC(C)(C)NS(C)(=O)=O` as well?
Response given: 67 to 70 °C

Challenge: Would you kindly repeat that for CC(c1ccc(-c2ccccc2)c(F)c1)c1cc(CO)no1 (centres undefined) ?
Response given: 127 to 128 °C

Challenge: # repeat for `CC(C)OC(=O)N1CCC(c2ccc3oc(-c4ccc(C(F)(F)F)cc4)nc3c2)CC1`
Response given: 145 to 148 °C

Challenge: Also `Cc1cc(-c2nc(-c3ccncc3)nn2C)cc(C)n1` , if possible.
Response given: 176 to 178 °C

Challenge: Same for `CN(C)CCOc1ccc(-c2n[nH]c3ncccc23)cc1`
Response given: 132 to 134 °C

Challenge: Moving on to CCOc1ccc(N2CCN(c3c(C)c4c(c(OCC)c3C)OC(C)C4)CC2)cc1 (centres undefined)
Response given: 121 to 122 °C

Challenge: Further, for O=C(Cc1ccccc1N1CCCC1)N1C[C@@H]2SCCC(c3ccccc3)(c3ccccc3)[C@@H]2C1 (racemic) ?
Response given: 166 °C
